System: Molm13
Test: cell viability relative to DMSO control (bortezomib = 0%); higher = less growth inhibition
Conditions: 10 nM; 72 h
Counter-ions that a name gives are not always drawn.
Entries annotated with measured cell viability
Write the number in % without appending the unit.

Completed entries (count: 3):
[
  {
    "molecule": "CCCCCCCCCCCCCCCCn1cc[n+](Cc2ccccc2)c1C",
    "scale unit": "%",
    "cell viability": 124
  },
  {
    "molecule": "CNC(=O)c1c(C)oc2cc(Oc3ncnc4cc(OC)c(OC)cc34)ccc12",
    "scale unit": "%",
    "cell viability": 103
  },
  {
    "molecule": "Cc1c(F)cc(C(=O)NC2CC2)cc1-c1ccc(C(=O)NCC(C)(C)C)cn1",
    "scale unit": "%",
    "cell viability": 92.1
  }
]

[ask] I would be grateful if you could share the reported cell viability for N#CC(C#N)=C(N)/C(C#N)=C/c1cc(O)c(O)c(O)c1 .
[reply] 98.1

[ask] I would be grateful if you could share the reported cell viability for C#Cc1cccc(Nc2ncnc3cc4c(cc23)OCCOCCOCCO4)c1 [Icotinib] .
[reply] 93.2

[ask] I would be grateful if you could share the reported cell viability for O=S(=O)(c1cccc2cnccc12)N1CCCNCC1 [HA-1077 (hydrochloride)] .
[reply] 105

[ask] I would be grateful if you could share the reported cell viability for CN(C)C/C=C/C(=O)Nc1cc2c(Nc3ccc(F)c(Cl)c3)ncnc2cc1O[C@H]1CCOC1 [Afatinib (BIBW2992)] .
[reply] 87.5

[ask] I would be grateful if you could share the reported cell viability for C[C@H](Nc1ncnc2nc[nH]c12)c1cc2cccc(Cl)c2c(=O)n1-c1ccccc1 .
[reply] 111

[ask] I would be grateful if you could share the reported cell viability for N#C/C(=C\c1ccc(O)c(O)c1)C(=O)Nc1ccccc1 .
[reply] 106

// provenance: the supplement of paper PMC8699584
